experiment: chemical genetic growth profiling, strain panel (AID 1159580);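 also: tested at 20 µM; growth read once vehicle control cultures reached saturation at 30 °C; 1 = growth at the plate median or of vehicle wells; lower values mean less growth of the strain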; details: S. cerevisiae deletion strains, growth OD, locus YGR252W, strain gcn5, active compounds read low
About 2,000 (36%) of roughly 5,500 compounds were called active. Another 18% or so got no clear call; they are omitted. This is one part of the list.
List of normalized growth values.

{"columns": ["molecule", "normalized growth"],
 "data": [
  ["CC(C)c1nc(N(C)S(C)(=O)=O)nc(-c2ccc(F)cc2)c1/C=C/[C@@H](O)C[C@@H](O)CC(=O)O", "1.04 (inactive)"],
  ["COC(=O)[C@@H]1OC(=O)C2OC23[C@@]1(C)CCC1[C@@]2(C)CCC(=O)C(C)(C)C2C[C@@H](OC(C)=O)[C@]13C (stereo not given in full)", "1.08 (inactive)"],
  ["COc1ccc2c(c1)OCC(Cc1ccc(OC)c(O)c1)C2=O (stereo not given)", "0.78 (inactive)"],
  ["CCCCCCCCCCCC(=O)OCC(COP(=O)(O)OCC(O)COP(=O)(O)OCC(COC(=O)CCCCCCCCCCC)OC(=O)CCCCCCCCCCC)OC(=O)CCCCCCCCCCC (stereo not given)", "0.887 (inactive)"],
  ["Cc1ccc(C(=O)c2ccc(CC(=O)O)n2C)cc1", "0.975 (inactive)"],
  ["CC(=O)O[C@@H]1CC2C(C)(C)[C@H](O)CC[C@]2(C)C2CC[C@@]3(C)[C@H](c4ccoc4)OC(=O)[C@H]4O[C@]43[C@@]21C (stereo not given in full)", "1.03 (inactive)"],
  ["CC(=O)O[C@H]1C[C@@]2(C)[C@@H](C[C@@H](O)C3[C@]2(C)CC[C@H]2[C@H](C)[C@H](O)CC[C@]32C)/C1=C(/CCC=C(C)C)C(=O)O (stereo not given in full)", "1.02 (inactive)"],
  ["CC(=O)O[C@@H]1CC2C(C)(C)[C@@H](O)CC[C@]2(C)C2CC[C@@]3(C)[C@H](c4ccoc4)OC(=O)[C@H]4O[C@]43[C@@]21C (stereo not given in full)", "0.975 (inactive)"],
  ["COc1c(C)c2c(c(O)c1C/C=C(\\C)CCC(=O)O)C(=O)OC2", "1.01 (inactive)"],
  ["NC1(C(=O)O)CCC1", "0.894 (inactive)"],
  ["CC(=O)O[C@@H]1CC2C(C)(C)[C@H](O)CC[C@]2(C)C2CC[C@@]3(C)[C@H](c4ccoc4)OC(=O)C4OC43[C@@]21C (stereo not given in full)", "1.04 (inactive)"],
  ["Cc1cc(CC(=O)O)n(C)c1C(=O)c1ccc(Cl)cc1", "0.945 (inactive)"],
  ["O=c1cccc2n1CC1CC2CN2CCCC[C@@H]12 (stereo not given in full)", "0.968 (inactive)"],
  ["COc1ccc2c(c1)OCC(Cc1ccc(OC)c(OC)c1)C2=O (stereo not given)", "0.834 (inactive)"],
  ["NC(=O)NC1NC(=O)NC1=O (stereo not given)", "1.13 (inactive)"],
  ["Cc1cccc(C)c1NC(=O)C1CCCCN1C (stereo not given)", "0.963 (inactive)"],
  ["C=C[C@@]1(C)CC(=O)[C@@]2(O)[C@](C)(O1)[C@@H](OC(C)=O)[C@@H](O)C1C(C)(C)CC[C@H](O)[C@@]12C (stereo not given in full)", "1 (inactive)"],
  ["COC1=CC(=O)OC(CCc2ccc(OC)c(OC)c2)C1 (stereo not given)", "1 (inactive)"],
  ["NC1(C(=O)O)CCCC1", "0.935 (inactive)"],
  ["NCCCNCCSP(=O)(O)O", "0.978 (inactive)"]
]}
